experiment: Inhibitory activity against Dipeptidyl peptidase IV
pKi: −log10 of the molar value.
Label 1 when pKi >= 7; otherwise 0.

Here are 10 compounds together with their reported answers.
# COMPOUND, CATEGORY
measured = [
    ("CC1(C)CCN[C@@H]1C(=O)N1[C@H](C#N)C[C@@H]2C[C@@H]21", 1),
    ("N#C[C@@H]1C[C@@H]2C[C@@H]2N1C(=O)[C@@H]1C[C@@H]2C[C@@H]2N1", 0),
    ("N#C[C@@H]1C[C@@H]2C[C@@H]2N1C(=O)[C@@H]1C[C@H](NC(=O)OCC2c3ccccc3-c3ccccc32)CN1", 1),
    ("N#C[C@@H]1C[C@@H]2C[C@@H]2N1C(=O)[C@H]1CCCN1", 0),
    ("N#C[C@@H]1C[C@@H]2C[C@@H]2N1C(=O)[C@H]1NC[C@@H]2C[C@@H]21", 1),
    ("N#C[C@@H]1C[C@@H]2C[C@@H]2N1C(=O)[C@@H]1CCCCN1", 0),
    ("N#C[C@@H]1C[C@@H]2C[C@@H]2N1C(=O)[C@@H]1CCCN1", 0),
    ("N#C[C@@H]1C[C@@H]2C[C@@H]2N1C(=O)[C@@H]1CCN1", 0),
    ("N#C[C@@H]1C[C@@H]2C[C@@H]2N1C(=O)[C@@H]1C[C@H](NS(=O)(=O)c2ccc(Cl)cc2)CN1", 1),
    ("CC(C)(C)OC(=O)NC1CN[C@H](C(=O)N2[C@H](C#N)C[C@@H]3C[C@@H]32)C1 (single isomer, unassigned)", 0),
]

Read the next record carefully.
## Task Please indicate if the recorded pKi for CC[C@H]1CCN[C@@H]1C(=O)N1[C@H](C#N)C[C@@H]2C[C@@H]21 meets or exceeds 7.
## Result 0
